# Tested on: HT29 colon
# Assay comment: NCI-60 one-dose screen, 48 h (100 = growth as untreated, 0 = no growth, -100 = all killed)
# Condition info: 10 µM unless noted
The panel holds about 83,000 compounds, 20% with a hit somewhere; the sample as a whole holds those more often.
// classify: if (growth < 70%) Yes else No

Threshold test, growth < 70%: C#CCOc1cc(N(CC)CC)ccc1C(C(=O)NC(C)(C)C)N(C(=O)C1CCc2cc(F)ccc2O1)c1ccccc1F (centres undefined)
Yes

Threshold test, growth < 70%: C#CCOc1cc(N(CC)CC)ccc1C(C(=O)NC(C)(C)C)N(C(=O)C1CCc2cc(F)ccc2O1)c1ccc(Br)cc1 (centres undefined)
No

Threshold test, growth < 70%: C=C1CCC2C3(C)COC(c4cc(F)cc(F)c4)OC3CCC2(C)C1CC(O)C1=CCOC1=O (centres undefined)
Yes

Threshold test, growth < 70%: CC(=O)/C=C/c1cccc2c1C(=O)NC(C)(c1cc3cc(Br)ccc3oc1=O)N2 (centres undefined)
Yes

Threshold test, growth < 70%: `Nc1nnc(-c2c[nH]c3ccc(Br)cc23)c(-c2c[nH]c3ncc(Br)cc23)n1`
Yes

Threshold test, growth < 70%: `COc1ccc2[nH]c(O)c(N=NC(=O)Cn3c(-c4ccccc4)nc4cc(C)ccc43)c2c1`
Yes

Threshold test, growth < 70%: C=C1CC[C@@H]2[C@]3(C)COC(c4cn[nH]c4-c4ccccc4)O[C@@H]3CC[C@@]2(C)[C@@H]1C/C=C1/C(=O)OCC1O (some centres undefined)
Yes

Threshold test, growth < 70%: `CC(=O)N1CCN(Cc2ccc3c(NNC(=O)c4cnccn4)nc4cc(F)ccc4n23)CC1`
Yes

Threshold test, growth < 70%: `COc1ccc(-c2nc3cc(C)ccc3n2CC(=O)N=Nc2c(O)[nH]c3ccc(Cl)cc23)cc1`
Yes

Threshold test, growth < 70%: `O=C(N1c2ccccc2Sc2ccccc21)n1ccc2cccnc21`
Yes

Threshold test, growth < 70%: `Nc1cc2ccccc2c(=O)n1NC(=O)c1ccc(I)cc1`
No

Threshold test, growth < 70%: `Cc1ccc(-c2nnc3ccc(N/N=C/c4ccccc4)nn23)cc1`
No

Threshold test, growth < 70%: `Cc1ccc(-n2c(-c3cc4ccccc4nc3Cl)noc2=O)cc1`
No

Threshold test, growth < 70%: `CCN(CC)c1ccc(/C=N/Nc2nc(-c3ccc(Br)cc3)cs2)c(O)c1`
Yes

Threshold test, growth < 70%: `O=C(NNc1nc2cc(F)ccc2n2c(CN3CCCCC3)ccc12)c1cnccn1`
Yes

Threshold test, growth < 70%: CC(=O)Oc1ccc(/C=C/C(=O)N[C@@H](Cc2ccccc2)C(O)C(=O)NCc2ccccc2)cc1OC(C)=O (some centres undefined)
No

Threshold test, growth < 70%: Cc1ccc([C@H]2C(C(=O)c3ccc(Cl)cc3)C3(N[C@@H]2c2ccccc2)C(=O)Nc2ccc(Cl)cc23)cc1 (some centres undefined)
Yes

Threshold test, growth < 70%: `O=C(CN1C(=O)/C(=C/c2ccccc2Cl)SC1=S)N1CCOCC1`
No
